- Test system: HCT116 cells
- ASSAY_REMARKS: Combination mutation analysis, TMP dose response MFI
- Format: cell-based, human
- CONDITION_NOTES: TMP dose (log) −6.39, 48 h

{"MOLECULE": "OT-hDHFRC-032: combination mutant hDHFR (Y122I, H131R, E144G) (protein, UniProt P00374 1-187, looked up, variant Y122I H131R E144G) Dihydrofolate reductase: MVGSLNCIVAVSQNMGIGKNGDLPWPPLRNEFRYFQRMTTTSSVEGKQNLVIMGKKTWFSIPEKNRPLKGRINLVLSRELKEPPQGAHFLSRSLDDALKLTEQPELANKVDMVWIVGGSSVIKEAMNHPGRLKLFVTRIMQDFGSDTFFPEIDLEKYKLLPEYPGVLSDVQEEKGIKYKFEVYEKND", "MFI": 2694}
{"MOLECULE": "OT-hDHFRC-030: combination mutant hDHFR (Y122I, M140I) (protein, UniProt P00374 1-187, looked up, variant Y122I M140I) Dihydrofolate reductase: MVGSLNCIVAVSQNMGIGKNGDLPWPPLRNEFRYFQRMTTTSSVEGKQNLVIMGKKTWFSIPEKNRPLKGRINLVLSRELKEPPQGAHFLSRSLDDALKLTEQPELANKVDMVWIVGGSSVIKEAMNHPGHLKLFVTRIIQDFESDTFFPEIDLEKYKLLPEYPGVLSDVQEEKGIKYKFEVYEKND", "MFI": 2618}
{"MOLECULE": "OT-hDHFRC-031: combination mutant hDHFR (N127Y, Y122I) (protein, UniProt P00374 1-187, looked up, variant N127Y Y122I) Dihydrofolate reductase: MVGSLNCIVAVSQNMGIGKNGDLPWPPLRNEFRYFQRMTTTSSVEGKQNLVIMGKKTWFSIPEKNRPLKGRINLVLSRELKEPPQGAHFLSRSLDDALKLTEQPELANKVDMVWIVGGSSVIKEAMYHPGHLKLFVTRIMQDFESDTFFPEIDLEKYKLLPEYPGVLSDVQEEKGIKYKFEVYEKND", "MFI": 3345}
{"MOLECULE": "OT-DHFRC-029: combination mutant hDHFR (I17V, Y122I) (protein, UniProt P00374 1-187, looked up, variant I17V Y122I) Dihydrofolate reductase: MVGSLNCIVAVSQNMGVGKNGDLPWPPLRNEFRYFQRMTTTSSVEGKQNLVIMGKKTWFSIPEKNRPLKGRINLVLSRELKEPPQGAHFLSRSLDDALKLTEQPELANKVDMVWIVGGSSVIKEAMNHPGHLKLFVTRIMQDFESDTFFPEIDLEKYKLLPEYPGVLSDVQEEKGIKYKFEVYEKND", "MFI": 4355}

Hello, the source for this data is patent US12104178B2, in case you need it.
